- Tested on: HCT-15
- test.description: NCI in vitro 60-cell drug screen (SRB assay)
- Assay type: cell-based
- test.settings: HCT-15 (Colon cancer); 10^-5 molar concentration; 48 hours

{"item.smiles": "O=c1c2cc(Cl)ccc2sc2c(N3CCN(CCO)CC3)nc3ccccc3c12", "output.unit": "%", "Growth percent": 82.92}
{"item.smiles": "CN1CCN(c2nc3ccccc3c3c(=O)c4cc(Cl)ccc4sc23)CC1", "output.unit": "%", "Growth percent": 93.94}
{"item.smiles": "O=C(O)c1c(Sc2ccc(Cl)cc2)c(O)nc2ccccc12", "output.unit": "%", "Growth percent": 107.80}
{"item.smiles": "O=c1c2cc(Cl)ccc2sc2c(N3CCN(c4ccccc4)CC3)nc3ccccc3c12", "output.unit": "%", "Growth percent": 99.81}
{"item.smiles": "CN(C)c1nc2ccccc2c2c(=O)c3cc(Cl)ccc3sc12", "output.unit": "%", "Growth percent": 89.27}
{"item.smiles": "O=c1c2cc(Cl)ccc2sc2c(N3CCN(Cc4ccccc4)CC3)nc3ccccc3c12", "output.unit": "%", "Growth percent": 94.51}
{"item.smiles": "O=c1c2cc(Cl)ccc2sc2c(O)nc3ccccc3c12", "output.unit": "%", "Growth percent": 98.11}
{"item.smiles": "O=c1c2ccc(Cl)cc2sc2c(Cl)nc3ccccc3c12", "output.unit": "%", "Growth percent": 102.28}
{"item.smiles": "COc1nc2ccccc2c2c(=O)c3cc(Cl)ccc3sc12", "output.unit": "%", "Growth percent": 107.99}
{"item.smiles": "O=c1c2cc(Cl)ccc2sc2c(N3CCOCC3)nc3ccccc3c12", "output.unit": "%", "Growth percent": 93.81}
